test-target: myristoylated catalytic subunit of human PI3K delta in Rat-1 cells (Homo sapiens (Human))
Sequence (O00329 whole entry): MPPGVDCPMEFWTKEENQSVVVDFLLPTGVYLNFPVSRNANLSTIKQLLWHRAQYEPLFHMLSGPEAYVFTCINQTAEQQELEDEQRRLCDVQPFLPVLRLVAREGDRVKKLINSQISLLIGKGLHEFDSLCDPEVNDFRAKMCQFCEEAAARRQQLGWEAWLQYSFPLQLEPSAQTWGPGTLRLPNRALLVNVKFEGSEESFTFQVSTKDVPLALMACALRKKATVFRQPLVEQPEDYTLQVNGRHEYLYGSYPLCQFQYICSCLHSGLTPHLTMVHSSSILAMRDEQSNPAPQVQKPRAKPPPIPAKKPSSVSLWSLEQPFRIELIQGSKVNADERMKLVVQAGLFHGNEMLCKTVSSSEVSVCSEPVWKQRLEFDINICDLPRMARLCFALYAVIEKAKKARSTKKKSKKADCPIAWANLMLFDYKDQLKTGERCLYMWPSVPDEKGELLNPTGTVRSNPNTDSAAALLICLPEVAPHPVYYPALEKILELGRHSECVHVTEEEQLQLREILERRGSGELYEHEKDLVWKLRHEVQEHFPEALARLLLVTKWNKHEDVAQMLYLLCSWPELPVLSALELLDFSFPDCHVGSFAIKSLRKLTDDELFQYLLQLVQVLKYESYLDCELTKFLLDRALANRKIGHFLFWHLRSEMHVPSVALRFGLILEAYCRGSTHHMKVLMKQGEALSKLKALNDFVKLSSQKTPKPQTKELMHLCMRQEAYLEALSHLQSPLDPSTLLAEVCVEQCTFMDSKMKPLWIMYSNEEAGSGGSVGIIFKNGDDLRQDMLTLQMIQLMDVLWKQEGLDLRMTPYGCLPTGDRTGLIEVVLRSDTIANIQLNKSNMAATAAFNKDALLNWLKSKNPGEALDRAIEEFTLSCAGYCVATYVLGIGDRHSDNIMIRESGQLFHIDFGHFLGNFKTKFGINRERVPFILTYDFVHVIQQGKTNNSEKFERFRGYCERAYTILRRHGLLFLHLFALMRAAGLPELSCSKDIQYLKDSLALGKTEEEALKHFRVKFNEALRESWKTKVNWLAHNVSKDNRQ
assay-explanation: PI3K-mediated Akt 1/2 (S473) phosphorylation in Rat-1 cells, PI3K delta
condition-label: Rat-1 cells overexpressing myristoylated human PI3K delta; p-Akt (S473) AlphaScreen SureFire; read-out: Cell PI3Kδ/ IC50
Please respond with reported pIC50 for every item in the list.
Answers are plain numbers, as −log10 of the molar value.

Incoming: Give its pIC50 value. Item: "COc1ncc(N2CCOc3cnc(O[C@H]4CCN(C(=O)C5CCS(=O)(=O)CC5)C4)cc32)cc1C(F)F"
Outgoing: 7.74

Incoming: Give its pIC50 value. Item: COc1ncc(N2CCOc3cnc(O[C@H]4CCN(C(=O)c5cn(C)cn5)C4)cc32)cc1C [Example E1]
Outgoing: 8.15

Incoming: Give its pIC50 value. Item: "Cc1cc(N2CCOc3ccc(O[C@H]4CCN(C(=O)C5CCOCC5)C4)cc32)cnc1S(C)(=O)=O"
Outgoing: 6.81

Incoming: Give its pIC50 value. Item: COc1ncc(N2CCOc3ccc(O[C@H]4CCN(C(=O)c5cn(C)cn5)C4)cc32)cc1C#N [Example D1]
Outgoing: 6.83

Shift focus to the following entry.
Incoming: Give its pIC50 value. Item: "COc1ncc(N2CCOc3ccc(O[C@H]4CCN(C(=O)C5CCOCC5)C4)cc32)cc1C"
Outgoing: 7.37

----------
test-target: PI3K alpha (Homo sapiens (Human))
Sequence (P42336 other isoform, or with tags, fused parts or gaps): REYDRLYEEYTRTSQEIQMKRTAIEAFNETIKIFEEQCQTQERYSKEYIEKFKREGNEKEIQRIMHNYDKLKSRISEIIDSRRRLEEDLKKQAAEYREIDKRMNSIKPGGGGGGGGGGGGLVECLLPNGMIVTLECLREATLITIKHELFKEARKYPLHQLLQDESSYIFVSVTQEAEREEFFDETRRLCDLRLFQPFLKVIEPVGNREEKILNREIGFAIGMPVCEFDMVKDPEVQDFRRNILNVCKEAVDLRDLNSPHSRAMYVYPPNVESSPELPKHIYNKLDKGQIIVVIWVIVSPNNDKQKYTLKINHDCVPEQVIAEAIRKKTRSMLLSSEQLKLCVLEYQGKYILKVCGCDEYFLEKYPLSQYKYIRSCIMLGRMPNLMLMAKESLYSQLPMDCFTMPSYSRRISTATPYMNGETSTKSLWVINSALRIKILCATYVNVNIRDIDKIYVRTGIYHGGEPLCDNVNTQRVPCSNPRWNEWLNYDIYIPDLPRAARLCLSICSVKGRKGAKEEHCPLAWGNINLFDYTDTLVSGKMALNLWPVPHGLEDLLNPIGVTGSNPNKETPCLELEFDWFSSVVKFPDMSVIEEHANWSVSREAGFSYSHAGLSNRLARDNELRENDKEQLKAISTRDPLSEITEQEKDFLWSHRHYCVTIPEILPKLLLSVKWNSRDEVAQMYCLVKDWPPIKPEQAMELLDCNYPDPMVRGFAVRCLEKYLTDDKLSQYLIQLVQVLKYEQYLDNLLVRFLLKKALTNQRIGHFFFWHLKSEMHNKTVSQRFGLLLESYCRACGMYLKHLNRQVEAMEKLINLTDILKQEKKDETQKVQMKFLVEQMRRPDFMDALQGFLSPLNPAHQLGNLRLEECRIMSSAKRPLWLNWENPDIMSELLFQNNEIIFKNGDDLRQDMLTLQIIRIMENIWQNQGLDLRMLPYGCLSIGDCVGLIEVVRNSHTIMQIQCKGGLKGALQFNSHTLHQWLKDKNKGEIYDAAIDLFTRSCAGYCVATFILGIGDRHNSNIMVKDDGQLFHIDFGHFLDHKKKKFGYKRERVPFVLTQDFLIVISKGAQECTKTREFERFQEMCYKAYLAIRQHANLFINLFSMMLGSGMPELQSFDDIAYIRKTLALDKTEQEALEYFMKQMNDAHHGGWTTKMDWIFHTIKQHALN
assay-explanation: Enzymatic PI3K alpha isoform inhibition (lipid kinase activity, Kinase-Glo luminescence)
condition-label: Enzymatic assay
Flag rule - IC50 less than 600 nM flags yes; the remaining entries get no.

Examples with answers:
Incoming: Does this compound meet the criterion IC50 < 600 nM? COc1ncc(N2CCOc3ccc(O[C@H]4CCN(C(=O)[C@@H]5CCN(C(C)=O)C5)C4)cc32)cc1C [Example B122]
Outgoing: yes

Incoming: Does this compound meet the criterion IC50 < 600 nM? CCC(=O)N1CC[C@H](Oc2ccc3c(c2)N(c2cnc(OC)c(S(=O)(=O)N4CCN(C)CC4)c2)CCO3)C1 [Example A18]
Outgoing: no

Incoming: Does this compound meet the criterion IC50 < 600 nM? COc1ncc(N2CCOc3ccc(O[C@H]4CCN(C(=O)C5CCC(OC)CC5)C4)cc32)cc1C#N (single isomer, unassigned) [Example D35]
Outgoing: yes

Incoming: Does this compound meet the criterion IC50 < 600 nM? COc1ncc(N2CCOc3cnc(O[C@H]4CCN(C(=O)c5cn(C)cn5)C4)cc32)cc1F [Example F3]
Outgoing: yes

Incoming: Does this compound meet the criterion IC50 < 600 nM? COc1ncc(N2CCOc3ccc(O[C@H]4CCN(C(=O)c5ccc(=O)n(C)c5)C4)cc32)cc1C#N [Example D17]
Outgoing: no

We next turn to a different compound, shown below.
Incoming: Does this compound meet the criterion IC50 < 600 nM? COc1ncc(N2CCOc3ccc(O[C@H]4CCN(C(=O)c5cnon5)C4)cc32)cc1C#N [Example C7]
Outgoing: no

----------
test-target: PI3K delta (Homo sapiens (Human))
Sequence (O00329 other isoform, or with tags, fused parts or gaps linker GGGGGG): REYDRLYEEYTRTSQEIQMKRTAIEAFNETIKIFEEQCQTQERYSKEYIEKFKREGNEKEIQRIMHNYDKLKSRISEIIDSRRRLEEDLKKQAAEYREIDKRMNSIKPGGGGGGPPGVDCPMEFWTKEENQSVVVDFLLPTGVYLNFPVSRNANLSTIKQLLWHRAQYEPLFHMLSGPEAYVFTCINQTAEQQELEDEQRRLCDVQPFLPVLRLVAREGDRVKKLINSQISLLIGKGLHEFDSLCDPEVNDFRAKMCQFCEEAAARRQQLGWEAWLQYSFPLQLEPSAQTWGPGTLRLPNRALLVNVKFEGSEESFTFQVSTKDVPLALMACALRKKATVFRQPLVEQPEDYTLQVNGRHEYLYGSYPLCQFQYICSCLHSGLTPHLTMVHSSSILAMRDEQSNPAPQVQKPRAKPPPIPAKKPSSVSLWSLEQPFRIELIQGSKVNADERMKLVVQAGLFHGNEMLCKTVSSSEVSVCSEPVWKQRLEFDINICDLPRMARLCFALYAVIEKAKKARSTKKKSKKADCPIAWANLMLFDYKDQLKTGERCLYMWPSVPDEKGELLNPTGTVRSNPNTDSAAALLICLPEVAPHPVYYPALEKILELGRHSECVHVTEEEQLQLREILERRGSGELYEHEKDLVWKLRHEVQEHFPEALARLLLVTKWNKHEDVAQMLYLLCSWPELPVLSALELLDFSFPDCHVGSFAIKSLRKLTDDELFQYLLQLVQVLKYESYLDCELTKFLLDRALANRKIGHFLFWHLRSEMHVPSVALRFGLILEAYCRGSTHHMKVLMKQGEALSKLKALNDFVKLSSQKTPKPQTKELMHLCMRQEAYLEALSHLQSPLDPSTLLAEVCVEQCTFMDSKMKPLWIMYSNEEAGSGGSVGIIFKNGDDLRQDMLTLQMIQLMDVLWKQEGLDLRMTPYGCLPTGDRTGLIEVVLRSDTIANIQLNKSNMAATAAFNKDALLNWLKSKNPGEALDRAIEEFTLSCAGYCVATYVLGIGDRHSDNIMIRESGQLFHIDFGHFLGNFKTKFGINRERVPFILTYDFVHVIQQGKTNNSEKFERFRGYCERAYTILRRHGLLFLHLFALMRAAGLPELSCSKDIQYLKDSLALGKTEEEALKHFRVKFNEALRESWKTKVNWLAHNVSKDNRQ
assay-explanation: Enzymatic PI3K delta isoform inhibition (lipid kinase activity, Kinase-Glo luminescence)
condition-label: Enzymatic assay
readout-label: pIC50
One number for each entry, as −log10 of the molar value.

Incoming: Give its pIC50 value. Item: "CS(=O)(=O)c1ncc(N2CCOc3ccc(O[C@H]4CCN(C(=O)C5CCOCC5)C4)cc32)cc1CF"
Outgoing: 8.26

Incoming: Give its pIC50 value. Item: "CCC(=O)N1CC[C@H](Oc2ccc3c(c2)N(c2ccc(S(=O)(=O)CC)nc2)CCO3)C1"
Outgoing: 6.93

Incoming: Give its pIC50 value. Item: "COc1ncc(N2CCOc3ccc(O[C@H]4CCN(C(=O)c5cccnc5)C4)cc32)cc1C#N"
Outgoing: 7.82

List pIC50 for every entry below, keeping the order given.
1. COc1ncc(N2CCOc3cnc(O[C@H]4CCN(C(=O)c5cn6ccsc6n5)C4)cc32)cc1C(F)(F)F
2. COc1ncc(N2CCOc3cnc(O[C@@H]4CCN(C(=O)C5CCS(=O)(=O)CC5)C4)cc32)cc1C
3. CCC(=O)N1CC[C@H](Oc2ccc3c(c2)N(c2cnc(OC)c(OC)c2)CCO3)C1

Outgoing:
1. 7.77
2. 6.68
3. 7.08

List pIC50 for every entry below, keeping the order given.
1. COc1ncc(N2CCOc3ccc(O[C@H]4CCN(C(=O)C5COCCO5)C4)cc32)cc1C#N (stereo partly shown) [Example C24]
2. CS(=O)(=O)c1ncc(N2CCOc3ccc(O[C@H]4CCN(C(=O)C5CCOCC5)C4)cc32)cc1F

Outgoing:
[8.52, 7.21]

List pIC50 for every entry below, keeping the order given.
1. COc1ncc(N2CCOc3ccc(O[C@H]4CCN(C(=O)C5CCOCC5)C4)cc32)cc1C(F)F
2. COc1ncc(N2CCOc3ccc(O[C@H]4CCN(C(=O)C(C)(C)O)C4)cc32)cc1C#N
3. CCC(=O)N1CC[C@H](Oc2ccc3c(c2)N(c2ccc(OC)c(S(C)(=O)=O)c2)CCO3)C1
4. CCC(=O)N1CC[C@H](Oc2ccc3c(c2)N(c2cncc(C(F)(F)F)c2)CCO3)C1

Outgoing:
[8.22, 7.24, 6.49, 7.19]

List pIC50 for every entry below, keeping the order given.
1. N#Cc1cncc(N2CCOc3ccc(O[C@H]4CCN(C(=O)C5CCOCC5)C4)cc32)c1
2. Cc1cc(N2CCOc3ccc(O[C@H]4CCN(C(=O)C5CCOCC5)C4)cc32)cnc1OC(F)F

Outgoing:
7.51
7.49

----------
test-target: UniProt P42336
assay-explanation: Enzymatic PI3K alpha isoform inhibition (lipid kinase activity, Kinase-Glo luminescence)
condition-label: Enzymatic assay
readout-label: pIC50
Answers are plain numbers, as −log10 of the molar value.

List pIC50 for every entry below, keeping the order given.
1. Cc1cc(N2CCOc3ccc(O[C@H]4CCN(S(=O)(=O)C5CC5)C4)cc32)cnc1S(C)(=O)=O [Example B83]
2. COc1cc(N2CCOc3ccc(O[C@H]4CCN(C(=O)C5CCS(=O)(=O)C5)C4)cc32)cnc1OC (stereo partly drawn) [Example B41]
3. COc1ncc(N2CCOc3ccc(O[C@H]4CCN(C(=O)[C@H]5CC[C@H](O)CC5)C4)cc32)cc1F [Example B117]
4. COc1ncc(N2CC(C)Oc3ccc(O[C@H]4CCN(C(=O)C5CCOCC5)C4)cc32)cc1C#N (stereo partly drawn) [Example O1]
5. COc1ncc(N2CCOc3ccc(O[C@H]4CCN(C(=O)C5CCOCC5)C4)cc32)cc1C#N [Example D4]
6. Cc1cc(N2CCOc3ccc(O[C@H]4CCN(C(=O)c5ccccc5)C4)cc32)cnc1S(C)(=O)=O [Example B34]
7. COc1ncc(N2CCOc3ccc(O[C@H]4CCN(C(=O)C5CCCCC5)C4)cc32)cc1C#N [Example D13]

Outgoing:
[6.67, 6.38, 5.92, 5.34, 6.63, 6.10, 6.28]

----------
test-target: PI3K alpha (Homo sapiens (Human))
assay-explanation: Enzymatic PI3K alpha isoform inhibition (lipid kinase activity, Kinase-Glo luminescence)
condition-label: Enzymatic assay
Please respond with reported pIC50 for every item in the list.
Give bare numbers, as −log10 of the molar value.

Reference set (5 entries):
Incoming: Give its pIC50 value. Item: "Cc1cc(N2CCOc3ccc(O[C@H]4CCN(C(=O)c5cnco5)C4)cc32)cnc1S(C)(=O)=O"
Outgoing: 6.18

Incoming: Give its pIC50 value. Item: "COc1ncc(N2CCOc3ccc(O[C@H]4CCN(C(=O)CC(C)C)C4)cc32)cc1C#N"
Outgoing: 6.41

Incoming: Give its pIC50 value. Item: COc1cc(N2CCOc3ccc(O[C@H]4CCN(C(=O)C5CCOC5)C4)cc32)cnc1OC (stereo partly drawn)
Outgoing: 6.60

Incoming: Give its pIC50 value. Item: COc1cc(N2CCOc3ccc(O[C@H]4CCN(C(=O)C5CCS(=O)(=O)C5)C4)cc32)cnc1OC (single isomer, unassigned) [Example H9]
Outgoing: 6.21

Incoming: Give its pIC50 value. Item: Cc1cc(N2CCOc3ccc(O[C@H]4CCN(C(=O)C5CCS(=O)(=O)C5)C4)cc32)cnc1S(C)(=O)=O (stereo partly drawn) [Example B35]
Outgoing: 5.86

List pIC50 for every entry below, keeping the order given.
1. COc1ncc(N2CCOc3ccc(O[C@H]4CCN(C(=O)C5CCS(=O)(=O)C5)C4)cc32)cc1Cl (single isomer, unassigned) [Example H14]
2. COc1cc(N2CCOc3ccc(O[C@H]4CCN(C(=O)c5cn(C)cn5)C4)cc32)cnc1OC
3. Cc1cc(N2CCOc3ccc(O[C@H]4CCN(C(=O)C5CCOCC5)C4)c(F)c32)cnc1S(C)(=O)=O
4. COc1ncc(N2CCOc3ccc(O[C@H]4CCN(C(=O)C5COCCO5)C4)cc32)cc1C#N (stereo partly drawn) [Example C24]
5. COc1ncc(N2CCOc3ccc(O[C@H]4CCN(C(=O)C5CCOCC5)C4)cc32)cc1F

Outgoing:
6.99
6.96
6.08
6.25
6.14
